Assay: in vivo
Settings: male, rat, in vivo
Protocol: The plasma or brain tissue (the whole brain was washed with pH 7.4 buffer for 3 times) was homogenized immediately in 3-5 ml of methanol, using a tissue tearor at 30,000 rpm (about 2 min.).
READOUT_TYPE: concentration at 1 h
Express your answer as a number followed by its unit.

Problem: // fetch concentration at 1 h given entry CC(C)Cc1ccc(C(C)C(=O)O)cc1 (stereo not shown) [ibuprofen, 2-(ρ-isobutylphenyl)propionic acid, reference compound]
Result: 1430 µM

###

Test: Distribution in organs of rats killed with CO2 (absence of general circulation);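 note: tissue concentration in nmol/g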
Conditions: 5 hrs after 0.3 mmol/kg diethylaminoethyl acetylsalicylate HCl salt on back of killed rats
Description: 0.3 mmol/kg of diethylaminoethyl acetylsalicylate HCl salt (10% in pure water) was applied to the back of rats (10 cm^2) which were killed with CO2. The rats were shaken for 5 hrs, then the HPCs and parent drugs in organs of rats were determined.
READOUT_TYPE: concentration in kidney (nmol/g)
One number for each entry, in nmol/g.

{"columns": ["COMPOUND", "concentration in kidney [nmol/g]"],
 "data": [
  ["O=C(O)c1ccccc1O", 21.2],
  ["CC(=O)Oc1ccccc1C(=O)O [aspirin, acetylsalicylic acid, reference compound]", 3.5],
  ["CCN(CC)CCOC(=O)c1ccccc1OC(C)=O.Cl", 3.1]
]}

Continue with the compound presented below.
Problem: Consider the compound `CCN(CC)CCOc1ccccc1C(=O)O` . State its measured concentration in kidney.
Result: 3.1
